Test: GFP drop in mixed WT/humanized-ribosome E. coli culture – GFP/RFP fluorescence, OD600, single point, bacterial rRNA inhibitor project, primary screen (AID 720706)
Settings: E. coli WT GFP vs humanized-ribosome RFP mutants, 24 h; active compounds read low, DMSO median 0, no signal -100
Hit rate of the full screen: of about 350,000 compounds, about 5,500 (1.6%) were called active. This is one part of a sample in which actives are shown more often than they occur.
Reported endpoint: GFP signal change (wild-type ribosome) (%)
Respond numerically; units are % and should not be typed.

Reported GFP signal change (wild-type ribosome), compound CC1CN(c2nc(Nc3ccccc3)nc(N)c2[N+](=O)[O-])CC(C)O1 (stereo not drawn) : ____
-35.4

Same thing, different compound: "Clc1ccc(Nc2ccc3ccccc3n2)cc1"
-54.6

Same thing, different compound: "C=CCn1c(-c2ccccc2OCC)n[nH]c1=S"
3.63

Same thing, different compound: "COc1ccc(N(CC(=O)N2CCCCCC2)S(=O)(=O)c2ccccc2)cc1"
-1.75

Same thing, different compound: "COc1cccc(CNC(=O)[C@H]2CCCN2C(=O)[C@H]2CCCN2C(=O)c2ccc(F)cc2)c1"
2.11

Same thing, different compound: O=S1(=O)CC(N2CCN(Cc3ccccc3F)CC2)CN1Cc1cn(Cc2cccc(C(F)(F)F)c2)nn1 (stereo not drawn)
-29.5

Same thing, different compound: "O=C(N/N=C/c1ccco1)c1ccc(NC(=O)C2CC2)cc1"
33.5

Same thing, different compound: "Cc1ccccc1S(=O)(=O)N1CC(=O)N2[C@H](CO)[C@H](c3ccc(C#CCN(C)C)cc3)[C@H]2C1"
4.6

Same thing, different compound: "COc1ccccc1S(=O)(=O)N[C@@H]1CC[C@H](CCn2cc(C3CCCC3)nn2)O[C@H]1CO"
1.1

Same thing, different compound: "COCC(=O)N1CCC2(CC1)CN(Cc1ccccc1Cl)[C@H](CO)c1c2c2ccc(OC)cc2n1C"
5.11

Same thing, different compound: "C=CCn1c(-c2sc(-c3ccccc3)nc2C)n[nH]c1=S"
-24.3

Same thing, different compound: "COc1ccc(S(=O)(=O)Nc2ccc3c(c2)CC(=O)N([C@H](C)CO)C[C@H](C)[C@@H](CN(C)C)O3)cc1"
2.15

Same thing, different compound: "COc1ccc(NC(=O)N(C)C[C@@H]2Oc3ccc(NS(=O)(=O)c4ccc(Cl)cc4)cc3C(=O)N([C@H](C)CO)C[C@@H]2C)cc1"
-1.87
